- test_protocol: chemical genetic growth profiling, strain panel (AID 1159580);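 also: tested at 20 µM; growth read once vehicle control cultures reached saturation at 30 °C; 1 = growth at the plate median or of vehicle wells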
- measurement_parameters: S. cerevisiae deletion strains, growth OD, locus YBL105C, strain PKC1, stronger effect = lower value
Hit rate of the full screen: of about 5,500 compounds, about 2,000 (36%) were called active. Another 18% or so got no clear call; they are omitted. This is one part of the list.
So I've got a bunch of molecules here, and I need their normalized growth values.
Answers are plain numbers.

| molecule | normalized growth |
| --- | --- |
| CC1CCC(C(C)C)C(N(Cc2ccccc2)C(=O)c2ccccc2)C1 (configuration not stated) | 0.987 |

For every listed record, write down its normalized growth.
1. O=C(Nc1ccncc1)c1cc(-c2ccccc2)oc1C(F)(F)F
2. O=C(Nc1cc(Cl)ccc1O)c1ccccc1CSc1ccc(Cl)cc1
3. Clc1ccc(CSc2nccn2-c2cc(Cl)ccc2Cl)cc1
4. FC(F)(F)c1cc(NC(=S)SCCSC(=S)Nc2cc(C(F)(F)F)cc(C(F)(F)F)c2)cc(C(F)(F)F)c1

output:
1: 0.985; 2: 0.984; 3: 0.964; 4: 0.989

###

- test_protocol: chemical genetic growth profiling, strain panel (AID 1159580);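 also: tested at 20 µM; growth read once vehicle control cultures reached saturation at 30 °C; 1 = growth at the plate median or of vehicle wells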
- measurement_parameters: S. cerevisiae deletion strains, growth OD, locus YER111C, strain swi4
In all, about 5,500 compounds went through this assay and about 2,000 (36%) were called active. About 18% were inconclusive and are not listed. No stated cut-off is given here; in the data, active means normalized growth mostly below about 0.91 (no sharp cut-off); inconclusive means no clear call, values can overlap the other calls; inactive means mostly above about 0.92. The list shows a part of the results.
Give your call using only these classes: class 1 = active, class 0 = inactive

These solved cases illustrate the format of a correct answer.
| compound | assigned_label |
| --- | --- |
| COP(=S)(OC)Oc1ccc([N+](=O)[O-])cc1 | class 0 |
| O=c1oc2ccccc2cc1O | class 0 |
| O=C1CCCN1CC#CCN1CCCC1 | class 0 |
| Cc1onc(-c2ccccc2)c1-c1ccc(S(N)(=O)=O)cc1 | class 0 |
| CCC(C)C(=O)c1c(O)c(C)c2oc3c(C)c(O)c(C(=O)C(C)CC)c(O)c3c2c1O (centres undefined) | class 0 |
| CC(=O)OC/C=C(\C)CC/C=C(\C)CC/C=C(\C)CC/C=C(\C)CC/C=C(\C)CC/C=C(\C)CC/C=C(\C)CC/C=C(\C)CCC=C(C)C | class 0 |

input: Which outcome was assigned to `Cc1nnc(NS(=O)(=O)c2ccc(N)cc2)s1` in this test?
output: class 0

input: Just curious, what result did COc1ccc(CCC(=O)c2c(O)cc(O[C@@H]3O[C@H](CO)C(O)[C@H](O)C3O[C@@H]3O[C@@H](C)[C@H](O)[C@@H](O)[C@H]3O)cc2O)cc1O (some centres undefined) get here?
output: class 0

input: // outcome(item) with item = Clc1ccc(COC(Cn2ccnc2)c2ccc(Cl)cc2Cl)c(Cl)c1 (centres undefined)
output: class 1

input: I would be grateful if you could indicate the recorded call for COC(=O)/C(C)=C\CC12OC(C)(C)C3CC(C=C4C(=O)c5c(OC)c6c(c(CC=C(C)C)c5OC431)OC(C)(CCC=C(C)C)C=C6)C2=O (centres undefined) .
output: class 0

input: Dear all, I need the recorded test outcome for CC(=O)O[C@@H]1CC2C(C)(C)C(=O)C3OC3[C@]2(C)C2CC[C@@]3(C)[C@H](c4ccoc4)OC(=O)C4OC43[C@@]21C (some centres undefined) , thank you.
output: class 0

input: Status in this test for Clc1ccc(COC(Cn2ccnc2)c2ccc(Cl)cc2Cl)cc1 (centres undefined) ?
output: class 1

input: Just curious, what result did O=c1[nH]c(=O)n(C2C[C@H](O)[C@@H](CO)O2)cc1C(F)(F)F (some centres undefined) get here?
output: class 0

input: Per the records of this test, what outcome belongs to COC[C@]12CN(C=O)C3[C@@H]4[C@H](OC)C1[C@]3(C1CC3(O)C(OC)C(O)C4(OC(C)=O)C1C3OC(=O)c1ccccc1)[C@@H](OC)C[C@H]2O (some centres undefined) ?
output: class 0

input: Each compound tested received a call. Report the one for CC(=O)O[C@H]1C[C@@]2(C)[C@@H](C[C@@H](O)C3[C@]2(C)CC[C@H]2[C@H](C)[C@H](O)CC[C@]32C)/C1=C(/CCC=C(C)C)C(=O)O (some centres undefined) .
output: class 0

input: Look up the recorded call for CC(=O)C1CCC2C3CCC4C[C@H](O)CCC4(C)C3C[C@H](O)C12C (some centres undefined) in this test.
output: class 0

input: Please share the test call associated with Clc1ccc(CSC(Cn2ccnc2)c2ccc(Cl)cc2Cl)cc1 (centres undefined) .
output: class 1

input: Per the assay record, what outcome was assigned to CC(C)=CC1C(C(=O)OCc2cccc(Oc3ccccc3)c2)C1(C)C (centres undefined) ?
output: class 0

input: In this assay, the call recorded for CC(=O)C1CC[C@H]2C3CC[C@H]4C[C@H](O)CC[C@]4(C)C3CC[C@]12C (some centres undefined) was what?
output: class 0
